Tested on: alpha-smooth muscle actin (α-SMA)
Test: Inhibition of TGF-β induced expression of alpha-smooth muscle actin (α-SMA) in CFSC cells, western blot
Assay type: cell-based
Settings: compound at 10 μM, TGF-β (10 ng/mL), 24 hours, decrease in band intensity vs TGF-β only
Overview of reported inhibition at 10 µM across a group of molecules:

Worked examples follow.
CC1=C(CC(=O)O)c2cc(F)ccc2/C1=C\c1ccccc1Oc1ccccc1 [Compound D19] ... < 50%
CC1=C(CC(=O)O)c2cc(F)cc(F)c2/C1=C\c1ccc(Oc2ccc(F)cc2)cc1 [Compound D15] ... > 90%
CC1=C(CC(=O)O)c2cc(F)ccc2/C1=C\c1ccc(Oc2cc(F)c(F)cc2F)cc1 [Compound A18] ... 70 to 80%
COc1ccc(Oc2ccc(/C=C3/C(C)=C(CC(=O)O)c4cc(F)ccc43)c(Cl)c2)cc1 [Compound A12] ... > 90%
CC1=C(CC(=O)O)c2cc(F)ccc2/C1=C\c1ccc(Oc2ccc(C)cc2)cc1 [Compound A4] ... > 90%

Looking up CC1=C(CC(=O)O)c2cc(F)ccc2/C1=C\c1ccc(C(C)C)cc1 [Compound B9] , I see its inhibition at 10 µM listed as > 90%

Looking up CC1=C(CC(=O)NO)c2cc(F)ccc2/C1=C\c1ccc(N(Cc2ccccc2)c2ccc(F)cc2)cc1 [Compound A38] , I see its inhibition at 10 µM listed as 70 to 80%

Looking up CC1=C(CC(=O)O)c2cc(F)ccc2/C1=C\c1ccc(N(C)c2ccc(F)cc2)cc1 [Compound A31] , I see its inhibition at 10 µM listed as > 90%

----------
System: alpha-smooth muscle actin (α-SMA)
Test: Inhibition of TGF-β induced expression of alpha-smooth muscle actin (α-SMA) in CFSC cells, western blot
Format: cell-based
Settings: compound at 10 μM, TGF-β (10 ng/mL), 24 hours, decrease in band intensity vs TGF-β only
endpoint.name: inhibition at 10 µM

CC1=C(CC(=O)O)c2cc(F)ccc2/C1=C\c1ccc(Oc2ccc(F)cc2Br)cc1 [Compound A17] ... > 90%
CC1=C(CC(=O)O)c2cc(F)ccc2/C1=C\c1cccc(Oc2ccccc2)c1 [Compound D18] ... > 90%
CC1=C(CC(=O)N(C)O)c2cc(F)ccc2/C1=C\c1cccc(Oc2ccccc2)c1 [Compound C3] ... 80 to 90%

Looking up CNC(=O)CC1=C(C)/C(=C/c2ccc(Oc3ccc(F)cc3)cc2)c2ccc(F)cc21 [Compound A26] , I see its inhibition at 10 µM listed as 70 to 80%

Looking up CC1=C(CC(=O)NO)c2cc(F)ccc2/C1=C\c1ccc(Oc2ccccc2)cc1 [Compound A23] , I see its inhibition at 10 µM listed as > 90%

Looking up CC1=C(CC(=O)O)c2c(F)cc(F)cc2/C1=C\c1cccc(Oc2ccccc2)c1 [Compound D21] , I see its inhibition at 10 µM listed as > 90%

Looking up CC1=C(CCc2nnn[nH]2)c2ccccc2/C1=C\c1ccc(C(C)C)cc1 [Compound B30] , I see its inhibition at 10 µM listed as > 90%

Looking up CC1=C(CC(=O)O)c2cc(F)ccc2/C1=C\c1ccc(Oc2ccc3ccccc3c2)cc1 [Compound A14] , I see its inhibition at 10 µM listed as > 90%
